System: 991263-137-R1-J2-PDC complex spheroid viability;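 also: spheroids exposed to compounds for 7 days before readout; 100% = DMSO vehicle control viability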
Assay: Anticancer human tumor 991263-137-R1-J2-PDC patient-derived colon adenocarcinoma cell line growth inhibition [POLQ]
Details: second compound 0.316 µM; first compound 10 µM; stronger effect = lower value
Experimental: Multicellular complex tumor spheroid response to Polymerase (POL) inhibitors (novobiocin, ART-558, RP6685) in combination with a variety of drugs and investigational agents in selected tumor cell lines The POL inhibitors (novobiocin, ART-558, and RP6685) were evaluated both individually and in combination with standard of care and investigational anticancer small molecules within a complex spheroid model of solid tumors. . […]
// returns 0 unless viability, T/C is strictly below 90%, in which case 1

Record excerpt, results attached:
# molecule, assigned class
measured = [
    ("CCc1cc2c(N3CCc4c(cc(Cn5ccnc5)cc4-c4cn(C)nc4C(F)(F)F)C3=O)ccnc2c(OC)n1 + Nc1ccc(C#CCN(C(=O)Cc2ncc(C(F)(F)F)cc2C(F)(F)F)c2ccc(F)cc2)nn1", 1),
    ("COc1cccc2c1C(=O)c1c(O)c3c(c(O)c1C2=O)CC(O)(C(=O)CO)CC3OC1CC(N)C(O)C(C)O1 (stereo not given) + COC1C(OC(N)=O)C(O)C(Oc2ccc3c(O)c(NC(=O)c4ccc(O)c(CC=C(C)C)c4)c(=O)oc3c2C)OC1(C)C", 1),
    ("O=C(Nc1ccc(O)c(NS(=O)(=O)c2ccc(F)cc2)c1)c1ccc(-c2ccccc2)cc1 + COC1C(OC(N)=O)C(O)C(Oc2ccc3c(O)c(NC(=O)c4ccc(O)c(CC=C(C)C)c4)c(=O)oc3c2C)OC1(C)C", 0),
    ("CCCS(=O)(=O)Nc1ccc(F)c(C(=O)c2c[nH]c3ncc(-c4ccc(Cl)cc4)cc23)c1F + Nc1ccc(C#CCN(C(=O)Cc2ncc(C(F)(F)F)cc2C(F)(F)F)c2ccc(F)cc2)nn1", 0),
    ("C#Cc1c(F)ccc2cc(O)cc(-c3ncc4c(N5CC6CCC(C5)N6)nc(OCC56CCCN5CC(F)C6)nc4c3F)c12 (stereo not given) + Cc1cccc(N(C)C(=O)C2C(O)CCN2c2nc(C)cc(C(F)(F)F)c2C#N)c1", 0),
    ("COc1cccc2c1C(=O)c1c(O)c3c(c(O)c1C2=O)CC(O)(C(=O)CO)CC3OC1CC(N)C(O)C(C)O1 (stereo not given) + Nc1ccc(C#CCN(C(=O)Cc2ncc(C(F)(F)F)cc2C(F)(F)F)c2ccc(F)cc2)nn1", 1),
]

Inquiry: Does this molecule meet the criterion viability, T/C < 90%? O=C(c1cc(Cc2n[nH]c(=O)c3ccccc23)ccc1F)N1CCN(C(=O)C2CC2)CC1 + COC1C(OC(N)=O)C(O)C(Oc2ccc3c(O)c(NC(=O)c4ccc(O)c(CC=C(C)C)c4)c(=O)oc3c2C)OC1(C)C
Reply text: 0

Inquiry: Just wondering, is viability, T/C of C#Cc1c(F)ccc2cc(O)cc(-c3ncc4c(N5CC6CCC(C5)N6)nc(OCC56CCCN5CC(F)C6)nc4c3F)c12 (stereo not given) + Nc1ccc(C#CCN(C(=O)Cc2ncc(C(F)(F)F)cc2C(F)(F)F)c2ccc(F)cc2)nn1 below 90%?
Reply text: 0

Inquiry: Threshold test, viability, T/C < 90%: C=CC(=O)N1CCN(c2nc(=O)n(-c3c(C)ccnc3C(C)C)c3nc(-c4c(O)cccc4F)c(F)cc23)C(C)C1 (stereo not given) + COC1C(OC(N)=O)C(O)C(Oc2ccc3c(O)c(NC(=O)c4ccc(O)c(CC=C(C)C)c4)c(=O)oc3c2C)OC1(C)C
Reply text: 0

Inquiry: Is it true that viability, T/C reported for C#Cc1c(F)ccc2cc(O)cc(-c3ncc4c(N5CC6CCC(C5)N6)nc(OCC56CCCN5CC(F)C6)nc4c3F)c12 (stereo not given) + COC1C(OC(N)=O)C(O)C(Oc2ccc3c(O)c(NC(=O)c4ccc(O)c(CC=C(C)C)c4)c(=O)oc3c2C)OC1(C)C is less than 90%?
Reply text: 0

Inquiry: Given the entry O=C(c1cc(Cc2n[nH]c(=O)c3ccccc23)ccc1F)N1CCN(C(=O)C2CC2)CC1 + Cc1cccc(N(C)C(=O)C2C(O)CCN2c2nc(C)cc(C(F)(F)F)c2C#N)c1 , would its reported viability, T/C be below 90%?
Reply text: 1

Inquiry: Does the reported viability, T/C of the following molecule sit strictly below 90%? CC(C)n1c(=O)n(C)c2cnc3cc(F)c(-c4ccc(OCCCN5CCCCC5)nc4)cc3c21 + COC1C(OC(N)=O)C(O)C(Oc2ccc3c(O)c(NC(=O)c4ccc(O)c(CC=C(C)C)c4)c(=O)oc3c2C)OC1(C)C
Reply text: 0

Inquiry: Determine whether this molecule shows viability, T/C lower than 90% (ties excluded): O=C(c1cc(Cc2n[nH]c(=O)c3ccccc23)ccc1F)N1CCN(C(=O)C2CC2)CC1 + Nc1ccc(C#CCN(C(=O)Cc2ncc(C(F)(F)F)cc2C(F)(F)F)c2ccc(F)cc2)nn1
Reply text: 0

Inquiry: Dear reviewer, please state whether COc1cc2cc(C(=O)CCC(=O)O)sc2cc1OC + Cc1cccc(N(C)C(=O)C2C(O)CCN2c2nc(C)cc(C(F)(F)F)c2C#N)c1 has viability, T/C strictly beneath 90%.
Reply text: 1

Inquiry: Lab log: compare recorded viability, T/C with 90%; is it strictly lower for CCCS(=O)(=O)Nc1ccc(F)c(C(=O)c2c[nH]c3ncc(-c4ccc(Cl)cc4)cc23)c1F + Cc1cccc(N(C)C(=O)C2C(O)CCN2c2nc(C)cc(C(F)(F)F)c2C#N)c1 ?
Reply text: 0

Inquiry: I wonder whether CNCc1ccc(-c2[nH]c3cc(F)cc4c3c2CCNC4=O)cc1 + Cc1cccc(N(C)C(=O)C2C(O)CCN2c2nc(C)cc(C(F)(F)F)c2C#N)c1 has viability, T/C below 90%. Can you tell?
Reply text: 0

Inquiry: Strictly below 90% in viability, T/C? CC1COCCN1c1cc(C2(O)CC3CCC(C2)O3)c2cnn(-c3ccn[nH]3)c2n1 (stereo not given) + Nc1ccc(C#CCN(C(=O)Cc2ncc(C(F)(F)F)cc2C(F)(F)F)c2ccc(F)cc2)nn1
Reply text: 1

Inquiry: A record lists CC1COCCN1c1cc(-c2ccnn2C)c2ccnc(-c3ccn[nH]3)c2n1 (stereo not given) + COC1C(OC(N)=O)C(O)C(Oc2ccc3c(O)c(NC(=O)c4ccc(O)c(CC=C(C)C)c4)c(=O)oc3c2C)OC1(C)C . Is its viability, T/C below 90%?
Reply text: 1

Inquiry: For this molecule, is viability, T/C lower than 90%? CNCc1ccc(-c2[nH]c3cc(F)cc4c3c2CCNC4=O)cc1 + Nc1ccc(C#CCN(C(=O)Cc2ncc(C(F)(F)F)cc2C(F)(F)F)c2ccc(F)cc2)nn1
Reply text: 0
